Values were extracted from paper PMC3608651.

molecular target: HLA-C*07:01 (Homo sapiens, UniProt P10321, K90N/S123Y); assay type: binding; conditions: percent relative the binding of positive control peptide […]; duplicated experiments; positive binder >40%
Please note: Bind C*07:01 exactly at 20% is 0 (no). Only values below 20% get 1 (yes).

Req: In the record for TSELPQW LS , is Bind C*07:01 less than 20%?
Resp: 1 (yes)

Req: In the record for YQAWQAQWN [Rv0288_51–59] , is Bind C*07:01 less than 20%?
Resp: 1 (yes)

Req: In the record for RAYHSMSST [Rv0288_67–75m1] , is Bind C*07:01 less than 20%?
Resp: 1 (yes)

Req: In the record for VRAYHAMSS [Rv0288_66–74] , is Bind C*07:01 less than 20%?
Resp: 0 (no)

Req: In the record for GSSAMILAA , is Bind C*07:01 less than 20%?
Resp: 1 (yes)

Req: In the record for AAGGHNAVF , is Bind C*07:01 less than 20%?
Resp: 0 (no)

Req: In the record for EANTMAMMA [Rv0288_77–85] , is Bind C*07:01 less than 20%?
Resp: 1 (yes)

Req: In the record for MAMMARDTA [Rv0288_81–89] , is Bind C*07:01 less than 20%?
Resp: 1 (yes)
